Test system: Influenza A virus
Test: Antiviral activity against oseltamivir resistant Influenza A virus A/Texas/12/2007 (H3N2) infected in MDCK cells incubated for 72 hrs by cell protection assay
Format: functional, organism-based

{"columns": ["line_notation", "EC50 [nM]"],
 "data": [
  ["CC(C)(C)[C@@H](CC(=O)O)Nc1nc(-c2c[nH]c3ncc(F)cc23)ncc1F", 30]
]}
